Record form. Attribute: IC50. Fill in for each entry.
# System: human c-MER catalytic domain (Homo sapiens (Human), UniProt Q12866)
# Sequence (Q12866 587-858): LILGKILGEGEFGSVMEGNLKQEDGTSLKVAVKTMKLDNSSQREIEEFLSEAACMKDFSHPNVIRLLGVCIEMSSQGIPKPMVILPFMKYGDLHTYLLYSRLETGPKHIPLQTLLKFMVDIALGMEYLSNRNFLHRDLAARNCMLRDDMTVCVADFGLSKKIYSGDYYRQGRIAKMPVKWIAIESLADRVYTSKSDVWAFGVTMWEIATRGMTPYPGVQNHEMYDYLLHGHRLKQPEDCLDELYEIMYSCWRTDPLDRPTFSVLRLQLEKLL
# Procedure Details: TR-FRET Kinase Activity Biochemical Assay (LanthaScreen)
# Experimental Conditions: 10 uM ATP, 1 hour, kinase not given

Previously resolved entries follow.
Cn1cc(-c2cnc(N)c(C(=O)N[C@@H]3CCN(C(=O)O[C@H]4CCN(c5ccccc5)C4)C3)c2)cn1	100 to 1000 nM
Cn1cc(-c2cnc(N)c(C(=O)N[C@@H]3CCN(Cc4ccc(F)c(-c5ccccc5)c4)C3)c2)cn1	100 to 1000 nM
Nc1ncc(-c2ccc(CN3CCOCC3)cc2)cc1C(=O)N[C@@H]1CCN(C(=O)c2ccc(-c3ccccc3)cc2)C1	10 to 100 nM
Cn1cc(-c2cnc(N)c(C(=O)N[C@H]3CN(C(=O)c4ccc(Br)cc4)C[C@@H]3O)c2)cn1	> 1000 nM
Cn1cc(-c2cnc(N)c(C(=O)N[C@@H]3CCN(Cc4cc(Cl)cc(Cl)c4O)C3)c2)cn1	100 to 1000 nM
C[C@H]1CCCC[C@H]1OC(=O)N1CC[C@@H](NC(=O)c2cc(-c3cnn(C)c3)cnc2N)C1	> 1000 nM

Record IC50 for all entries; do not skip any.
1. Cn1cc(-c2cnc(N)c(C(=O)N[C@@H]3CCN(c4ncc([N+](=O)[O-])s4)C3)c2)cn1
2. Cn1cc(-c2cnc(N)c(C(=O)N[C@@H]3CCN(C(=O)Oc4cccc(-c5ccc(CN6CCCCC6)cc5)c4)C3)c2)cn1

Completion:
1: > 1000 nM; 2: 100 to 1000 nM

---

# System: human MER (528-end) (Homo sapiens (Human), UniProt Q12866)
# Sequence (Q12866 528-999 limits assumed): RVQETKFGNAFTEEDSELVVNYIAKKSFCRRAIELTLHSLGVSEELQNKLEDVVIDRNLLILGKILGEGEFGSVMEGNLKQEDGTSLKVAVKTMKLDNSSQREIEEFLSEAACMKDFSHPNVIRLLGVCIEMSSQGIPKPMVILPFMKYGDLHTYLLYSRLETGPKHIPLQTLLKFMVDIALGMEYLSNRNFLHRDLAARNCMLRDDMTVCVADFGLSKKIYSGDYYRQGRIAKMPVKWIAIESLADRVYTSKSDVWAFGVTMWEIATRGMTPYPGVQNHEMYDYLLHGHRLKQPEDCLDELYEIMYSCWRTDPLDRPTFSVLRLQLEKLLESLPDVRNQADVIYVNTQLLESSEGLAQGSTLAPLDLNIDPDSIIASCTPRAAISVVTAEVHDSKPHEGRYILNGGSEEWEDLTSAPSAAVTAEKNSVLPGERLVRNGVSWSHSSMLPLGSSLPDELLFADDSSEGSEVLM
# Procedure Details: HTRF Kinase Activity Biochemical Assay (KinEASE-TK)
# Experimental Conditions: 10 uM ATP
pIC50: −log10 of the molar value.
Readout: pIC50

CN1CCN(Cc2ccc(-c3cnc(N)c(C(=O)N[C@@H]4CCN(C(=O)c5ccc(-c6ccccc6)cc5)C4)c3)cc2)CC1 [Example 567]	7.00 to 8.00
Cn1cc(-c2cnc(N)c(C(=O)N[C@@H]3CCN(C(=O)c4ccc(C#CCCCO)cc4)C3)c2)cn1 [Example 554]	6.00 to 7.00
Cn1cc(-c2cnc(N)c(C(=O)NC[C@@H]3CCN(C(=O)c4cccc(-c5ccccc5)c4)C3)c2)cn1 [Example 739]	< 6.00
Cn1cc(-c2cnc(N)c(C(=O)N[C@@H]3CCN(C(=O)Oc4cccc(-c5ccc(CN[C@@H]6CCNC6)cc5)c4)C3)c2)cn1 [Example 313]	6.00 to 7.00
COC(=O)c1cccc(OC(=O)N2CC[C@@H](NC(=O)c3cc(-c4cnn(C)c4)cnc3N)C2)c1 [Example 64]	< 6.00

// input: 4 compounds below; output: pIC50 for each
1. Nc1ncc(-c2ccc(C(=O)N3CCOCC3)c(Cl)c2)cc1C(=O)N[C@@H]1CCN(C(=O)c2ccc(-c3ccc(F)cc3Cl)cc2)C1 [Example 781]
2. Cn1cc(-c2cnc(N)c(C(=O)N[C@@H]3CCN(C(=O)Oc4cccc(-c5ccc(CN6CCC(CO)CC6)cc5)c4)C3)c2)cn1 [Example 321]
3. Cn1cc(-c2cnc(N)c(C(=O)N[C@@H]3CCN(C(=S)Nc4ccc(Cl)c(Cl)c4)C3)c2)cn1 [Example 44]
4. Cn1cc(-c2cnc(N)c(C(=O)N[C@@H]3CCN(C(=O)Oc4cc(Cl)ccc4Cl)C3)c2)cn1 [Example 61]

Completion:
7.00 to 8.00
6.00 to 7.00
< 6.00
< 6.00
